Test system: HEK293 WT BDD-FVIII-Gluc
Test: secreted FVIII-Gluc luciferase Z-score vs DMSO control; higher = more FVIII-Gluc secretion
Settings: 5 µM
Rule: secreted FVIII-Gluc luciferase Z-score of 0.2 or more gives Y; anything lower gives N.

Solved entries:
[[record]]
compound = "COC(=O)[C@H]1[C@H]2C[C@H]3c4[nH]c5ccccc5c4CCN3C[C@H]2CC[C@@H]1O"
answer_label = "N"

[[record]]
compound = "COc1cccc(-c2oc3ccccc3c(=O)c2O)c1"
answer_label = "Y"

[[record]]
compound = "COc1ccc(-c2coc3cc(O)ccc3c2=O)cc1"
answer_label = "Y"

[[record]]
compound = "COc1cc2ccc(=O)oc2cc1O"
answer_label = "N"

[[record]]
compound = "Cc1ccc2oc(-c3ccccc3)c(O)c(=O)c2c1"
answer_label = "Y"


QUERY: Item CC(=O)OC1CCC2(C)C3CCC4(C)C(CC5CCCCC54C(C)=O)C3CC(=O)C2(O)C1 (configuration not stated) with secreted FVIII-Gluc luciferase Z-score of 0.2 or above?
RESULT: N

QUERY: How about COc1ccccc1CC(Cc1nc2ccccc2[nH]1)c1nc2ccccc2[nH]1 (configuration not stated) ?
RESULT: N
